molecular target: T1, recombinant human HER2 extracellular domain protein (human, UniProt P04626 23-652); assay: BLI, Protein A capture
T1 construct: range 23-652; Range is printed for the immunogen/panning protein; also called ErbB2; recombinant HER2 protein
Kind request: treat 0.0007 s⁻¹ as inclusive, so koff at 0.0007 s⁻¹ or higher is Fulfilled, anything lower is Not fulfilled.

## Input Can Hu2117HK-Mu47 (Fc fusion, name in Kabat numbering, scFv-hIgG1 Fc; not shown: human IgG1 Fc) scFv: EVQLVESGGGLVQPGGSLRLSCAASGFTYSSYGMSWVRQAPGKGLEWVASISGGGSYTKYPDSVKGRFTISRDNSKNTLYLQMNSLRAEDTAVYYCARDYQGFFDVWGQGTLVTVSSGGGGSGGGGSGGGGSDIQMTQSPSSLSASVGDRVTITCRSSQSLVHSNGNTYLHWYQQKPGKAPKLLIYKVSNRFSGVPSRFSGSGSGTDFTLTISSLQPEDFATYFCSQSTHVPYTFGQGTKVEIK be said to have koff at or above 0.0007 s⁻¹?
## Output Fulfilled

## Input Can Hu2117HK-Mu18 (Fc fusion, name in Kabat numbering, scFv-hIgG1 Fc; not shown: human IgG1 Fc) scFv: EVQLVESGGGLVQPGGSLRLSCAASGFTYSSYGMSWVRQAPGKGLEWVASISGGGSYTKYPDSVKGRFTISRDNSKNTLYLQMNSLRAEDTAVYYCARDYAGFFDVWGQGTLVTVSSGGGGSGGGGSGGGGSDIQMTQSPSSLSASVGDRVTITCRSSQSLVHSLGNTYLHWYQQKPGKAPKLLIYKVSNRFSGVPSRFSGSGSGTDFTLTISSLQPEDFATYFCSQSTHVPYTFGQGTKVEIK be said to have koff at or above 0.0007 s⁻¹?
## Output Not fulfilled

## Input Can Hu2117HK-Mu02 (Fc fusion, scFv-hIgG1 Fc; not shown: human IgG1 Fc) scFv: EVQLVESGGGLVQPGGSLRLSCAASGFTYSSYGMSWVRQAPGKGLEWVASISGGGSYTKYPDSVKGRFTISRDNSKNTLYLQMNSLRAEDTAVYYCARDYAGFFDVWGQGTLVTVSSGGGGSGGGGSGGGGSDIQMTQSPSSLSASVGDRVTITCRSSQSLVHSNGNTYLHWYQQKPGKAPKLLIYKVSNRFSGVPSRFSGSGSGTDFTLTISSLQPEDFAVYFCSQSTHVPYTFGQGTKVEIK be said to have koff at or above 0.0007 s⁻¹?
## Output Fulfilled

## Input Can Hu2117HK-Mu16 (Fc fusion, name in Kabat numbering, scFv-hIgG1 Fc; not shown: human IgG1 Fc) scFv: EVQLVESGGGLVQPGGSLRLSCAASGFTYSSYGMSWVRQAPGKGLEWVASISGGGSYTKYPDSVKGRFTISRDNSKNTLYLQMNSLRAEDTAVYYCARDYAGFFDVWGQGTLVTVSSGGGGSGGGGSGGGGSDIQMTQSPSSLSASVGDRVTITCRSSQSLVHSGGNTYLHWYQQKPGKAPKLLIYKVSNRFSGVPSRFSGSGSGTDFTLTISSLQPEDFATYFCSQSTHVPYTFGQGTKVEIK be said to have koff at or above 0.0007 s⁻¹?
## Output Not fulfilled

## Input Can Hu2117HK-Mu48 (Fc fusion, scFv-hIgG1 Fc; not shown: human IgG1 Fc) scFv: EVQLVESGGGLVQPGGSLRLSCAASGFTYSSYGMSWVRQAPGKGLEWVASISGGGSYTKYPDSVKGRFTISRDNSKNTLYLQMNSLRAEDTAVYYCARDYRGFFDVWGQGTLVTVSSGGGGSGGGGSGGGGSDIQMTQSPSSLSASVGDRVTITCRSSQSLVHSNGNTYLHWYQQKPGKAPKLLIYKVSNRFSGVPSRFSGSGSGTDFTLTISSLQPEDFATYFCSQSTHVPYTFGQGTKVEIK be said to have koff at or above 0.0007 s⁻¹?
## Output Fulfilled

## Input Can Hu2117HK-Mu27 (Fc fusion, scFv-hIgG1 Fc; not shown: human IgG1 Fc) scFv: EVQLVESGGGLVQPGGSLRLSCAASGFTYSSYGMSWVRQAPGKGLEWVASISGGGSYTKYPDSVKGRFTISRDNSKNTLYLQMNSLRAEDTAVYYCARDYAGFFDVWGQGTLVTVSSGGGGSGGGGSGGGGSDIQMTQSPSSLSASVGDRVTITCRSSQSLVHSNRNTYLHWYQQKPGKAPKLLIYKVSNRFSGVPSRFSGSGSGTDFTLTISSLQPEDFATYFCSQSTHVPYTFGQGTKVEIK be said to have koff at or above 0.0007 s⁻¹?
## Output Not fulfilled
